Hey, just so you know, these numbers are from ChEMBL document CHEMBL4219155.

Target: Kallikrein-7 (Homo sapiens)
Test: Inhibition of recombinant human KLK7 using MOCAc-Arg-Pro-Lys-Pro-Val-Glu-Nva-Trp-Arg-Lys(Dnp)-NH2 as substrate preincubated for 10 mins followed by substrate addition measured after 30 mins by fluorescence assay
pIC50: −log10 of the molar value.
METRIC: pIC50

>  <STRUCTURE>
CNC(=O)c1cccc(NC(=O)CN2C/C(=N/N(C)C)NC[C@@H](Cc3cc(Cl)ccc3OC)C2=O)c1

>  <ENDPOINT_VALUE>
6.03

$$$$
>  <STRUCTURE>
COc1ccc(Cl)cc1C[C@@H]1CN/C(=N\N(C)C)CN(CC(=O)Nc2cccc(-c3ccoc3)c2)C1=O

>  <ENDPOINT_VALUE>
6.17

$$$$
>  <STRUCTURE>
COc1ccc(Cl)cc1C[C@@H]1CN/C(=N\N(C)C)CN(CC(=O)Nc2cccc(C(F)(F)F)c2)C1=O

>  <ENDPOINT_VALUE>
5.37

$$$$

(P) CCCC[C@H](C(=O)Nc1cccc(-c2cnn(C)c2)c1)N1C/C(=N/N(C)C)NC[C@@H](Cc2cc(Cl)ccc2OC)C1=O
(Q) COc1ccc(Cl)cc1C[C@@H]1CN/C(=N\N(C)C)CN([C@@H](C)C(=O)Nc2cccc(-c3cnn(C)c3)c2)C1=O
Which record shows the lower pIC50: the first, P , or the second, Q ? Returns: label corresponding to the selected item.
P
(P: 5.39, Q: 7.24)

(P) CC[C@H](C(=O)Nc1cccc(-c2cnn(C)c2)c1)N1C/C(=N/N(C)C)NC[C@@H](Cc2cc(Cl)ccc2OC)C1=O
(Q) COc1ccc(Cl)cc1C[C@@H]1CN/C(=N\N(C)C)CN([C@H](C)C(=O)Nc2cccc(-c3cnn(C)c3)c2)C1=O
Higher pIC50 between P and Q ? Returns: label corresponding to the selected item.
Q

###

Molecular target: Kallikrein-7 (Homo sapiens, UniProt P49862)
Sequence (P49862 whole entry): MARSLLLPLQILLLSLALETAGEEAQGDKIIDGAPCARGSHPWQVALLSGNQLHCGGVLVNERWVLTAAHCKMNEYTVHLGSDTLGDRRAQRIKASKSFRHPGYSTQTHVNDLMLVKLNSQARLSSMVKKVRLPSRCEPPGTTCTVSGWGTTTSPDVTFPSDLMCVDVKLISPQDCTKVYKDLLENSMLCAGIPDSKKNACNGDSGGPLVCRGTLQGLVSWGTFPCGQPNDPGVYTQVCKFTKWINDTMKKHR
Experiment: Inhibition of recombinant human KLK7 using MOCAc-Arg-Pro-Lys-Pro-Val-Glu-Nva-Trp-Arg-Lys(Dnp)-NH2 as substrate preincubated for 10 mins followed by substrate addition measured after 30 mins by fluorescence assay
METRIC: IC50 (nM)

Below, each entry is followed by its recorded IC50 result.
>  <STRUCTURE>
COc1ccc(Cl)cc1C[C@@H]1CN/C(=N\N(C)C)CN(CC(=O)Nc2cccc(S(=O)(=O)N(C)C)c2)C1=O

>  <TARGET_OR_SYSTEM>
Kallikrein-7 (Homo sapiens, UniProt P49862)

>  <IC50 [nM]>
990

$$$$
>  <STRUCTURE>
COc1cccc(NC(=O)CN2C/C(=N/N(C)C)NC[C@@H](Cc3cc(Cl)ccc3OC)C2=O)c1

>  <TARGET_OR_SYSTEM>
Kallikrein-7 (Homo sapiens, UniProt P49862)

>  <IC50 [nM]>
2700

$$$$
>  <STRUCTURE>
COc1ccc(Cl)cc1C[C@@H]1CN/C(=N\N(C)C)CN(CC(=O)Nc2cccc(-c3cccs3)c2)C1=O

>  <TARGET_OR_SYSTEM>
Kallikrein-7 (Homo sapiens, UniProt P49862)

>  <IC50 [nM]>
870

$$$$
>  <STRUCTURE>
COc1ccc(Cl)cc1C[C@@H]1CN/C(=N\N(C)C)CN(CC(=O)Nc2cccc(-c3ccsc3)c2)C1=O

>  <TARGET_OR_SYSTEM>
Kallikrein-7 (Homo sapiens, UniProt P49862)

>  <IC50 [nM]>
1500

$$$$

(a) CC[C@@H](C(=O)Nc1cccc(-c2cnn(C)c2)c1)N1C/C(=N/N(C)C)NC[C@@H](Cc2cc(Cl)ccc2OC)C1=O
(b) COc1ccc(Cl)cc1C[C@@H]1CN/C(=N\N(C)C)CN(CC(=O)Nc2cccc(S(=O)(=O)C(F)(F)F)c2)C1=O
Higher IC50 between a and b ? Returns: label corresponding to the selected item.
b

(P) CCC[C@@H](C(=O)Nc1cccc(-c2cnn(C)c2)c1)N1C/C(=N/N(C)C)NC[C@@H](Cc2cc(Cl)ccc2OC)C1=O
(Q) COc1ccc(Cl)cc1C[C@@H]1CN/C(=N\N(C)C)CN(CC(=O)Nc2cccc(C(=O)N(C)C)c2)C1=O
Which record shows the lower IC50: the first, P , or the second, Q ? Returns: label corresponding to the selected item.
P
